- TESTED TARGET: E3 ubiquitin-protein ligase TRIM33 (Homo sapiens, UniProt Q9UPN9)
- Sequence (Q9UPN9 whole entry): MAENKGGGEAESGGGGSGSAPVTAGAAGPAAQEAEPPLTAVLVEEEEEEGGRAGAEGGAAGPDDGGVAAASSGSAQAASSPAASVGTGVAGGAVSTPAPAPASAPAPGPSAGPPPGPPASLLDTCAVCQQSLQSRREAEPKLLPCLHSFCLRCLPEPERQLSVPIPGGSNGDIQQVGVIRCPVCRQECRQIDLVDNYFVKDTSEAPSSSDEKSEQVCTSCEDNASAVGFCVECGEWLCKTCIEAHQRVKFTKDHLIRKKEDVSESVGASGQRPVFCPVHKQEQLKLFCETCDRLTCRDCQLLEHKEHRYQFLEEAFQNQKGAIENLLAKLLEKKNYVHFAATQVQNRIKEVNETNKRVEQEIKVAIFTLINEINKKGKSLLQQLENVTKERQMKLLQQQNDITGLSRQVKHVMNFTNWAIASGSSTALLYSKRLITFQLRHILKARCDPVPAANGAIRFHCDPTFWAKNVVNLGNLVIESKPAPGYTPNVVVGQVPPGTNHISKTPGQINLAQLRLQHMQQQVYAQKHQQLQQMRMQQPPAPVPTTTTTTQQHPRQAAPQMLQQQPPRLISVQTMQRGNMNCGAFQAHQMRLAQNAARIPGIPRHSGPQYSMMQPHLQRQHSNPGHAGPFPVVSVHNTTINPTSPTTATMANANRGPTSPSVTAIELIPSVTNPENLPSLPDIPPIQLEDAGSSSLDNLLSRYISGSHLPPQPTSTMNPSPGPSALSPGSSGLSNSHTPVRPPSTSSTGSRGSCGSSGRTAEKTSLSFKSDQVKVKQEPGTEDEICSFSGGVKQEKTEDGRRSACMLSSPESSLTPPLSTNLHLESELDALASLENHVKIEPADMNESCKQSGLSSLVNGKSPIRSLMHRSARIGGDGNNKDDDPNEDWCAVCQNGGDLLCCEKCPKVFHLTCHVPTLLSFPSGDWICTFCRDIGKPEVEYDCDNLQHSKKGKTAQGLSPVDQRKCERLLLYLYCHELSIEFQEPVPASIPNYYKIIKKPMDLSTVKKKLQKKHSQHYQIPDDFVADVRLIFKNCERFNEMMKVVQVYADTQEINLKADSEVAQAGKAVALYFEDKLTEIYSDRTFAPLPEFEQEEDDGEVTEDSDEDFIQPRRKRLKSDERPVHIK
- PROTOCOL DESCRIPTION: Inhibition of recombinant TRIM33 PHD bromodomain (unknown origin) using biotinylated H3 peptide (H3K9me3K18ac) by AlphaScreen assay
MEASUREMENT TYPE: pIC50
Keep it numeric: pIC50 is minus log10 of the concentration in mol/L.

Cc1nc[nH]c1-c1nc2ccccn2c1NC1CCCCC1: 5.97
CCCOc1ccn2c(C(C)=O)cc(-c3nc4cnccn4c3NCc3ccc(C#N)cc3)c2c1: 4.18

Turning now to a further record.
// fetch pIC50; item: COc1ccc(Nc2c(-c3ccc4nccn4c3)nc3ccccn23)cc1 ; system: E3 ubiquitin-protein ligase TRIM33 (Homo sapiens, UniProt Q9UPN9)
4.58

###

The reader will find reported pIC50 values listed item by item below.
- TESTED TARGET: E3 ubiquitin-protein ligase TRIM33 (Homo sapiens)
- PROTOCOL DESCRIPTION: Inhibition of recombinant TRIM33 PHD bromodomain (unknown origin) using biotinylated H3 peptide (H3K9me3K18ac) by AlphaScreen assay
In simple prose, pIC50 is minus the logarithm base ten of a concentration in moles per litre.

Worked examples, 5 compounds total:
CCCOc1ccn2c(C(C)=O)cc(-c3nc4ccccn4c3NCCOC)c2c1: 4.32
c1cn2c(NC3CCCCC3)c(-c3ccc4nccn4c3)nc2cn1: 3.77
Cc1[nH]cnc1-c1nc2ccc(Br)cn2c1NCc1ccc(C#N)cc1: 5.00
COc1ccc(CCNc2c(-c3ccc4nccn4c3)nc3cnccn23)cc1OC: 4.53
COc1ccc(Nc2c(-c3[nH]cnc3C)nc3ccc(Br)cn23)cc1: 7.86

Note down pIC50 recorded for COCCNc1c(-c2ccc3nccn3c2)nc2ccccn12
3.86

Indicate the recorded pIC50 value for this compound: N#Cc1ccc(CNc2c(-c3ccc4nccn4c3)nc3ccccn23)cc1
4.06

Please report pIC50 for the following compound: COC(=O)c1ccc2nc(-c3c[nH]c(C)n3)c(NCc3ccc(C#N)cc3)n2c1
3.19
